Target: rat MASP1 (Rattus norvegicus (Rat))
Sequence (Q8CHN8 other isoform, or with tags, fused parts or gaps): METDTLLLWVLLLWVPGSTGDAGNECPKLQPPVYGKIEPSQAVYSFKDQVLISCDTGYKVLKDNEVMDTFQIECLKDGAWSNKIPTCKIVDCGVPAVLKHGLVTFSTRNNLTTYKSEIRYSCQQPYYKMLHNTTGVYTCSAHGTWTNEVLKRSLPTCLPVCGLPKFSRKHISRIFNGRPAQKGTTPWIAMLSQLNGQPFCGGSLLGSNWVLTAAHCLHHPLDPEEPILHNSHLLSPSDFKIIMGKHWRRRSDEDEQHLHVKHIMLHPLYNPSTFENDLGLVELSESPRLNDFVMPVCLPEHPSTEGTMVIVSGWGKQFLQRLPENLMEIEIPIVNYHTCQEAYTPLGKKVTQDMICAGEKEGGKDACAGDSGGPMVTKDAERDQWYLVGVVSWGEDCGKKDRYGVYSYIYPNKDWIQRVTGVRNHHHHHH
Assay: Biochemical rat MASP1 assay (FRET substrate)
Conditions: Average IC50; recombinant rat MASP1; read-out: rat MASP1 IC50
Where a SMILES comes first, the peptide text is derived from it. Bridges are numbered along the chain shown (N, C = ends). [ ]: non-standard residue; d: D form. tBuAla = CC(C)(C)C[C@H](N)C(=O)O; Pen = CC(C)(S)[C@H](N)C(=O)O; Ahx = NCCCCCC(=O)O
Assign IC50 to each entry below.
Your reply should be a number followed by the unit it is expressed in.

Task: Param readout = IC50; param system = rat MASP1 (Rattus norvegicus (Rat)); param query = CC[C@H](C)[C@@H]1NC(=O)CCCNC(=O)[C@H](CC(=O)O)NC(=O)[C@@H]2CCCN2C(=O)[C@H]([C@@H](C)CC)NC(=O)[C@H]2NC(=O)[C@H]([C@@H](C)CC)NC(=O)[C@@H]3CCCN3C(=O)[C@@H]3CCCN3C(=O)[C@H](CC(C)(C)C)NC(=O)[C@H](CO)NC(=O)[C@H](CCCNC(=N)N)NC(=O)[C@H](CO)NC(=O)[C@H](CSSC2(C)C)NC1=O [Example 35] ; response: value
Result: 63 nM

Task: Param readout = IC50; param system = rat MASP1 (Rattus norvegicus (Rat)); param query = CC[C@H](C)[C@@H]1NC(=O)[C@H](C)NC(=O)CCCCCNC(=O)[C@H]([C@@H](C)CC)NC(=O)[C@H]2NC(=O)[C@H]([C@@H](C)CC)NC(=O)[C@@H]3CCCN3C(=O)[C@@H]3CCCN3C(=O)[C@H](CC(C)(C)C)NC(=O)[C@H](CO)NC(=O)[C@H](CCCNC(=N)N)NC(=O)[C@H](CO)NC(=O)[C@H](CSSC2(C)C)NC1=O [Example 72] (cyclo(AICSRS[tBuAla]PPI[Pen]I[Ahx]); disulfide 3-11) ; response: value
Result: 85 nM

Task: Param readout = IC50; param system = rat MASP1 (Rattus norvegicus (Rat)); param query = CC[C@H](C)[C@@H]1NC(=O)[C@@H]2CCCN2C(=O)[C@@H]2CCCN2C(=O)[C@H](CC(C)(C)C)NC(=O)[C@H](CO)NC(=O)[C@H](CCCNC(=N)N)NC(=O)[C@H](CO)NC(=O)[C@@H]2CSSC(C)(C)[C@H](NC1=O)C(=O)N[C@@H]([C@@H](C)CC)C(=O)N1CCC[C@H]1C(=O)N1CCC[C@H]1C(=O)N[C@@H]([C@@H](C)CC)C(=O)N2 [Example 58] (cyclo(CSRS[tBuAla]PPI[Pen]IPPI); disulfide 1-9) ; response: value
Result: 110 nM

---

Target: human MASP1 (Homo sapiens (Human), UniProt P48740)
Sequence (P48740 other isoform, or with tags, fused parts or gaps): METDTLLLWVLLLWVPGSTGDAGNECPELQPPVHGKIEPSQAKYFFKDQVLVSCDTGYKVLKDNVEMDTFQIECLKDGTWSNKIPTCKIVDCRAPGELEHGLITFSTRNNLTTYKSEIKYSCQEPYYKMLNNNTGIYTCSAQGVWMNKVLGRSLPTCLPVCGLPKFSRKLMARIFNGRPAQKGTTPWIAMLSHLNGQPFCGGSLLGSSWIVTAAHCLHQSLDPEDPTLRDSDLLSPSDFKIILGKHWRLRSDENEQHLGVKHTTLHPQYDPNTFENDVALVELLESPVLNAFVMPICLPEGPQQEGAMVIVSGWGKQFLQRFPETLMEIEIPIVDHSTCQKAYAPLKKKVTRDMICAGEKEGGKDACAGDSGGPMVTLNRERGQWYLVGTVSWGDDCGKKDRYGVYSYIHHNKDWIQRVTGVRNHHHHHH
Test: Biochemical human MASP1 assay (FRET substrate)
Settings: Average IC50; recombinant human MASP1; read-out: human MASP1 IC50
Where a SMILES comes first, the peptide text is derived from it. Bridges are numbered along the chain shown (N, C = ends). [ ]: non-standard residue; d: D form. Oic = O=C(O)[C@@H]1C[C@@H]2CCCC[C@@H]2N1; Pen = CC(C)(S)[C@H](N)C(=O)O; Ahx = NCCCCCC(=O)O
endpoint.name: IC50 (nM)
Give a bare numeral; the unit nM is implied.

Task: Reported IC50, compound CC[C@H](C)[C@@H]1NC(=O)[C@H](C)NC(=O)CNC(=O)CCCCCNC(=O)CC[C@@H](C(N)=O)NC(=O)[C@@H]2CCCN2C(=O)[C@H]([C@@H](C)CC)NC(=O)[C@H]2NC(=O)[C@H]([C@@H](C)CC)NC(=O)[C@@H]3C[C@@H]4CCCC[C@@H]4N3C(=O)[C@@H]3CCCN3C(=O)[C@H](CC(C)C)NC(=O)[C@H](CO)NC(=O)[C@H](CCCNC(=N)N)NC(=O)[C@H](CO)NC(=O)[C@H](CSSC2(C)C)NC1=O [Example 82] ([Ahx]GAICSRSLP[Oic]I[Pen]IPE-NH2; disulfide 5-13; lactam N-16) : ____
Result: 69
